This listing pairs compounds with measured MBC50.
Test system: Enterococcus faecalis
Assay: Antimicrobial activity against vancomycin-resistant Enterococcus faecalis ATCC 51299
Type: functional
Endpoint: MBC50

>>> result("C[C@@H](O)[C@H]1C(=O)N2C(C(=O)O)=C(SCCNC=N)C[C@H]12 [IMIPENEM ANHYDROUS]")
"64 µg/mL"
>>> result("CC1(C)S[C@@H]2[C@H](NC(=O)[C@H](N)c3ccc(O)cc3)C(=O)N2[C@H]1C(=O)O")
"64 µg/mL"
>>> result("CC(=O)NC[C@H]1CN(c2ccc(N3CCOCC3)c(F)c2)C(=O)O1")
"4 µg/mL"
>>> result("CN[C@H](CC(C)C)C(=O)N[C@H]1C(=O)N[C@@H](CC(N)=O)C(=O)N[C@H]2C(=O)N[C@H]3C(=O)N[C@H](C(=O)N[C@H](C(=O)O)c4cc(O)cc(O)c4-c4cc3ccc4O)[C@H](O)c3ccc(c(Cl)c3)Oc3cc2cc(c3O[C@@H]2O[C@H](CO)[C@@H](O)[C@H](O)[C@H]2O[C@H]2C[C@](C)(N)[C@H](O)[C@H](C)O2)Oc2ccc(cc2Cl)[C@H]1O")
"64 µg/mL"
